Source: a melting point compilation (Tetko et al.; mined from patent text by program, amines drawn as free bases though some values may be those of a salt)

recorded_metric: melting point

Known results for molecules:
molecule=CCOc1c(Cl)ccc(-c2cc(N)c(Cl)c(C(=O)OC)n2)c1F meas_value="154 to 156 °C"
molecule="CC(C)(C)NCC(O)c1ccc(N)c(C#N)c1F (centres undefined)" meas_value="150 to 151 °C"
molecule=COc1cc(OC)nc(NC(=O)Oc2ccccc2)n1 meas_value="118 to 119 °C"
molecule="OC1c2cc(OCc3ccc4ccccc4n3)ccc2OCCC1Oc1ccccc1 (centres undefined)" meas_value="128 to 129 °C"

Name the reported melting point value associated with the molecule O=C(NC(=O)N(SN1CCCC1=O)c1ccc(Oc2ccc(C(F)(F)F)cc2Cl)cc1F)c1c(F)cccc1F 125 to 126 °C

Name the reported melting point value associated with the molecule CC(C)CC(NC(c1ccc(-c2ccc(S(C)(=O)=O)cc2)cc1)C(F)(F)F)C(=O)NC(C#N)CC(=O)OCc1ccccc1 (centres undefined) 111 °C

Name the reported melting point value associated with the molecule COc1ncccc1-c1cccn2nc(Nc3ccc(C4CCN(CC(=O)N(C)C)CC4)cc3)nc12 173 to 175 °C

Name the reported melting point value associated with the molecule CCOc1nn(Cc2cccc(OCc3nc(-c4ccccc4)oc3C)n2)cc1CCC(=O)O 144 to 145 °C

Name the reported melting point value associated with the molecule COc1ccc2ccc(N3C(=O)c4ccccc4C3CC(=O)CCCO)nc2n1 (centres undefined) 152 °C
